biological target: Histone-lysine N-methyltransferase EHMT2 (Homo sapiens) (UniProt Q96KQ7); assay: qHTS Assay for Inhibitors of Histone Lysine Methyltransferase G9a; conditions: G9a H3K9 monomethylation, AlphaScreen, 2 h; series mostly up to 59 µM; note: nearly all actives have a fitted effect of over 75% in size
Sequence (Q96KQ7 913-1193 limits assumed): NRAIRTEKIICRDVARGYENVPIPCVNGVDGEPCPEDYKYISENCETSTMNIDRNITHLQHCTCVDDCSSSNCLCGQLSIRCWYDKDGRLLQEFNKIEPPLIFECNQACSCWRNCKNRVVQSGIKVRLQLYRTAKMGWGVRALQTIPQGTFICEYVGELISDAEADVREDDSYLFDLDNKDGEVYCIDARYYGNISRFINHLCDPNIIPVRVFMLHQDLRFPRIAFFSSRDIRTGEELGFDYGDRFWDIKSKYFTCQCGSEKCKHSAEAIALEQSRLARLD
Screen size: about 350,000 compounds; about 31,000 (8.9%) were called active. About 15% were inconclusive and are not listed. Calls come from the whole dose curve; as a rule, active = well fitted inhibition curve with a large enough effect; inconclusive = small, poorly fitted or top-dose-only effect; inactive = no such curve, though single readings can be large or run the other way. For the sample, actives were picked, then their nearest neighbours and some compounds at random.
Hi there, use one of these labels in your reply, thanks! 1 (yes) for active, 0 (no) for inactive

>  <compound>
O=C(O)c1ccc(Cn2c(=S)[nH]c3cc(Cl)ccc3c2=O)cc1

>  <assignedCategory>
1 (yes)

$$$$
>  <compound>
CC1CCC(N2CC(=O)N(CCC3=CCCCC3)C(c3ccc(F)cc3)C2=O)CC1 (configuration not stated)

>  <assignedCategory>
0 (no)

$$$$
>  <compound>
COc1ccccc1NC(=O)C1=C(C)Nc2nc(SCC(=O)c3ccc(C)cc3)nn2C1c1ccccc1C (configuration not stated)

>  <assignedCategory>
0 (no)

$$$$
>  <compound>
CNCC(O)CN1CCN(c2ccccc2OC)CC1 (configuration not stated)

>  <assignedCategory>
1 (yes)

$$$$

Lookup: Entry COc1ccccc1N1CCN(CCN2C(=O)c3ccccc3C(C)(C)C2=O)CC1 : call = ?
Found: 0 (no)

Lookup: Could you do the same for CCOC(=O)C1CCN(C(=O)/C=C/c2cc(OC)c(OC)c(OC)c2)CC1 , please?
Found: 0 (no)

Lookup: Could you do the same for NC(=O)C1CCN(C(=O)c2ccc3c(=O)n(Cc4cccc(Br)c4)c(=S)[nH]c3c2)CC1 , please?
Found: 1 (yes)
